Could you please report measured bioavailability for the items listed next?
Procedure text: Oral bioavailability in dog
Format: ADME, organism-based, Canis lupus familiaris
Condition description: in vivo
Numbers only, in %.

Consider the following items and state reported bioavailability for each.
1. CCCc1cc(C(=O)CC)cc(CCC)c1O[C@H](C(=O)O)c1ccc(C(C)C)cc1
2. CCCc1cc2c(=O)n(C)oc2c(CCC)c1O[C@H](C(=O)O)c1ccc(C(C)C)cc1
3. CCCc1cc2c(oc(=O)n2CC)c(CCC)c1O[C@H](C(=O)O)c1ccc(C(C)C)cc1

# output
85
73
35

----------
Could you please report measured AUC for the items listed next?
Procedure text: Area under concentration time curve of compound when administered perorally at a dose of 2 mg/kg to dogs
Format: ADME, organism-based, Canis lupus familiaris
Parameters: dose 2 mg/kg, route oral
Condition description: dog, in vivo, po
Hey, just the number and the unit after it is fine.

Take a look at these entries with their results.
CCCc1cc2c(oc(=O)n2CC)c(CCC)c1O[C@H](C(=O)O)c1ccc(C(C)C)cc1 : 9.1 µM·h
CCCc1cc2c(=O)n(C)oc2c(CCC)c1O[C@H](C(=O)O)c1ccc(C(C)C)cc1 : 26.9 µM·h

Here is another molecule to look at.
# input Requested read-out: AUC. Entry: "CCCc1cc(C(=O)CC)cc(CCC)c1O[C@H](C(=O)O)c1ccc(C(C)C)cc1"
# output 70.5 µM·h

----------
Assayed target: Peroxisome proliferator-activated receptor gamma (Homo sapiens, UniProt P37231)
Sequence (P37231 whole entry): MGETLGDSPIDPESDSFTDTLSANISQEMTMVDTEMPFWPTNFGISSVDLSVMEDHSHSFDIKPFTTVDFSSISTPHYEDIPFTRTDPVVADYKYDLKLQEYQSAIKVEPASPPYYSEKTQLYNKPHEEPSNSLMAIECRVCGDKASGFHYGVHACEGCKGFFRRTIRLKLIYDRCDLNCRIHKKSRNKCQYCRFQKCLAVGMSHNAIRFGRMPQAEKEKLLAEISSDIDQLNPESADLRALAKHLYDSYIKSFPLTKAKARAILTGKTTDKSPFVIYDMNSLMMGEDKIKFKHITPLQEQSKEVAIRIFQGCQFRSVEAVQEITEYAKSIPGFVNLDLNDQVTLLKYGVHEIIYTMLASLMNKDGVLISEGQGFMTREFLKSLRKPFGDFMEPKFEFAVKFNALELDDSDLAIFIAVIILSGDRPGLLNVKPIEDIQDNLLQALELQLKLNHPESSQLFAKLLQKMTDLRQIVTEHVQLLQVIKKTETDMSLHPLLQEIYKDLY
Procedure text: In vitro binding affinity for human PPAR gamma
Could you please report measured IC50 for the items listed next?
Answers are plain numbers, in nM.

CCCc1cc2c(=O)n(C(C)C)oc2c(CCC)c1O[C@H](C(=O)O)c1ccc(CC(C)C)cc1 : 260
CCCc1cc2c(=O)n(C)oc2c(CCC)c1O[C@H](C(=O)O)c1ccccc1 : 3800
CCCc1cc(C(=O)CC)cc(C)c1OC(C(=O)O)c1ccc(C(C)C)cc1 (stereo unspecified) : 260
CCCc1cc2c(oc(=O)n2CC)c(CCC)c1O[C@H](C(=O)O)c1ccc(Cl)cc1 : 220
CCCc1cc2c(oc(=O)n2CCC)c(CCC)c1O[C@H](C(=O)O)c1ccc(C(C)C)cc1 : 87
CCCc1cc(C(=O)CC)cc(Cl)c1O[C@H](C(=O)O)c1ccc(C(C)C)cc1 : 220
CCCc1cc2c(=O)n(C(C)C)oc2c(CCC)c1O[C@H](C(=O)O)c1ccc(C(C)C)cc1 : 160
CCCc1cc(C(=O)CC)cc(CCC)c1OC(C(=O)O)c1ccccc1 (stereo unspecified) : 2760
CCCc1cc2c(=O)n(C3CCCCC3)oc2c(CCC)c1O[C@H](C(=O)O)c1ccc(C(C)C)cc1 : 440
CCCc1cc(C(=O)c2ccccc2)cc(CCC)c1OC(C(=O)O)c1ccccc1 (stereo unspecified) : 4680

Consider the following items and state reported IC50 for each.
1. CCCc1cc2c(oc(=O)n2CC2CC2)c(CCC)c1O[C@H](C(=O)O)c1ccc(C(C)C)cc1
2. CCCc1cc(C(=O)CC)cc(CCC)c1O[C@H](C(=O)O)c1ccc(CC(C)C)cc1
3. CCCc1cc(C(=O)CC)cc(CCC)c1O[C@H](C(=O)O)c1ccc(OC(C)C)cc1

# output
1. 120
2. 220
3. 200
